Cited source for all entries: PubChem BioAssay

# ASSAY SUMMARY: compound effects on hepatocellular carcinoma cell viability – HepG2, calcein-AM fluorescence, 48 h, basal, profiling panel (AID 1164); note: test concentration not given here
# EXPERIMENTAL SETUP: higher = more signal
Decision: z-score >= 0.4 yields yes (1), all other cases yield no (0).

Solved cases below.
1) CC1CC/C=C\[C@H]2OC34C=CCN(c5ccc6ccccc6c5)C(=O)[C@H]3N(CCCO)C(=O)[C@@H]4C2C(=O)O1 (some centres not stated) = no (0)
2) CC(C)N1C(=O)c2ccccc2[C@@H](C(=O)NCCN2CCOCC2)[C@@H]1c1ccc(CO)cc1 = no (0)
3) COCCOC(=O)N1C(=O)[C@@]2(c3cc(C#CC4=CCCCC4)ccc31)[C@H](C(=O)Nc1nc3ccccc3s1)[C@H]1C(=O)O[C@H](c3ccccc3)[C@H](c3ccccc3)N1[C@@H]2c1ccc(O)cc1 = no (0)
4) COc1ccc([C@H]2OC[C@@H]3C[C@H](Cc4ccccc4)C(=O)N32)cc1 = no (0)
5) COc1ccc([Si](C)(C)[C@@H]2[C@@H](CC(=O)N3Cc4ccccc4C[C@H]3CO)O[C@]3(C(=O)N(Cc4ccc(N5C(=O)c6cccc7cccc5c67)cc4)c4ccccc43)[C@H]2C)cc1 = no (0)
6) C=CCN1C(=O)[C@]2(CCC(=O)OC(C)(C)C)N=C(c3ccc(OCCCO)cc3)O[C@@H]2c2ccccc21 = no (0)
7) CN(C)C(=O)[C@@]1(Cc2ccccc2)N=C(c2ccc(OCCCO)cc2)O[C@H]1c1ccccc1 = yes (1)
8) O=C1OCCC=C[C@H]2OC34C=CCN(Cn5nnc6ccccc65)C(=O)[C@H]3N(CCCO)C(=O)[C@@H]4C12 (some centres not stated) = no (0)
9) C=C[C@H](C)[C@H](OC(=O)Nc1ccc(SC)cc1)c1ccc(OCCO)cc1 = no (0)
10) O=C(C1N=C(c2ccc(OCCCO)cc2)N(c2ccccc2)O1)N1CCCCC1 (configuration not stated) = yes (1)

Q: Please indicate if the recorded z-score for COC(=O)C1=CC(CCCO)=CC(c2cccs2)N(Cc2cccc(OC(F)(F)F)c2)C=C1C(=O)OC (configuration not stated) meets or exceeds 0.4.
Ans: yes (1)

Q: Param item: C[N+](C)(C)CCCC[C@@H]1NC(=O)[C@@H]2C[C@H](C(=O)NCCCCCCN)[C@H](c3cccc(OCCO)c3)N2C1=O
Ans: yes (1)

###

Here the recorded z-score is given for each entry.
# ASSAY SUMMARY: viability profiling in MM1S myeloma cells – cell-based, resazurin fluorescence, basal, 24 h, PK04 Diversity Set, profiling panel (AID 1174);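 note: MM1S multiple myeloma cell line; test concentration not given here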
# EXPERIMENTAL SETUP: higher = more signal, called active from +8 up or from −8 down
Keep it simple and answer with nothing but the number.

1) C=C[C@H]1C(C(=O)OCC)=CC[C@@H](c2ccccc2)N1S(=O)(=O)c1ccc(C)cc1 = -0.172
2) [N-]=[N+]=Nc1ccccc1[C@@H]1OC(c2ccc(OCCCO)cc2)=N[C@]1(Cc1ccccc1)C(=O)O = 0.492

Q: # input compound: COc1ccc([Si](C)(C)[C@@H]2[C@@H](CCO)O[C@]3(C(=O)N(Cc4ccccc4)c4ccc(NC(=O)[C@H](C)O)cc43)[C@H]2C)cc1 ; wanted: its z-score
Ans: -6.39

Q: Next compound: C=C(COC)/C(=C/C[C@H](OC(=O)c1ccncc1)c1ccccc1OCCO)c1cc(C(=O)OC)ccc1OC
Ans: -2.16

Q: Further, for O=C1C2C=CC(C(O)C3CC=CCC3)N(Nc3ccccc3)C2C(=O)N1c1ccccc1 (stereo not drawn) ?
Ans: -1.57

Q: Request: CN(C)C(=O)[C@@]1(Cc2ccccc2CN=[N+]=[N-])N=C(c2ccc(OCCCO)cc2)O[C@H]1c1ccccc1N=[N+]=[N-]
Ans: -2.96

Q: Would you mind doing COc1ccc([Si](C)(C)[C@H]2[C@H](CC(=O)N3CCC[C@H]3CO)O[C@@]3(C(=O)N(Cc4ccc(N5CCOC5=O)cc4)c4ccccc43)[C@@H]2C)cc1 as well?
Ans: -0.255

Q: What would you report for C=CCC(OC(C)=O)[C@@H]1[C@@H](N(Cc2ccc(-c3cccc(C(F)(F)F)c3)o2)C(=O)Cc2ccc(OC)cc2)c2cc(OCCCO)ccc2N1C(=O)c1ccc(-c2ccccc2)cc1 (stereo partly drawn) ?
Ans: -0.0666
